Test system: T47D
Assay: Cell viability assay, adherent cell line, 5 day Alamar Blue (Example 8): T47D
Assay type: cell-based
Settings: Homo sapiens, 120 h, Breast Cancer Cell Viability
measured-metric: IC50

Example entries and their recorded answers appear below.
| mol | system | IC50 |
| --- | --- | --- |
| CC(C)Cc1sc(Nc2ncc(-c3cccs3)cc2C(=O)O)nc1C(C)(C)C | T47D | ≤ 1000 nM |
| Cc1ccc(-c2cnc(Nc3nc(C(C)(C)C)c(CC(C)C)s3)c(C(=O)O)c2)s1 | T47D | 1000 to 8000 nM |
| C=C(C)c1nc(Nc2ncc(-c3cccs3)cc2C(=O)O)sc1CC(C)C | T47D | 1000 to 8000 nM |
| Cc1ccc(-c2cnc(Nc3nc(C4CCC(F)(F)CC4)c(CC(C)C)s3)c(C(=O)O)c2)s1 | T47D | 1000 to 8000 nM |
| CC(C)Cc1sc(Nc2ncc(-c3cccs3)cc2C(=O)O)nc1C1CCC1 | T47D | ≤ 1000 nM |

Query: Look up IC50: CC(C)Cc1sc(Nc2ncc(-c3cccs3)cc2C(=O)O)nc1C1CCCCC1
Response: 1000 to 8000 nM

Query: // same read-out, input: CC(C)Cc1sc(Nc2ncc(-c3cccs3)cc2C(=O)O)nc1C1(C)CCCCC1
Response: ≤ 1000 nM

Query: // same read-out, input: CC(C)Cc1sc(Nc2ncc(-c3cccs3)cc2C(=O)O)nc1C1CCC(F)(F)CC1
Response: 1000 to 8000 nM

Query: // same read-out, input: CC(C)Cc1sc(Nc2ncc(-c3cccs3)cc2C(=O)O)nc1C1=CCC(F)(F)CC1
Response: ≤ 1000 nM

Query: // same read-out, input: CC(C)Cc1sc(Nc2ncc(-c3cccs3)cc2C(=O)O)nc1C1=CCCC1
Response: ≤ 1000 nM

Where these numbers come from: patent US20240208961A1
